Test system: OVCAR-8
Entries whose GI50 is below 5 µM take TRUE; entries at or above 5 µM take FALSE.

Smiles	Experimental Target	Class Label
Cn1ccnc1C(=O)/C=C/c1ccc(CC(=O)Nc2ccc(F)cc2)cc1	OVCAR-8	FALSE
O=C(Cc1ccc(/C=C/C(=O)c2ncc[nH]2)cc1)Nc1ccc(Cl)cc1	OVCAR-8	TRUE
Cn1ccnc1C(=O)/C=C/c1ccc(CC(=O)Nc2ccc(Cl)cc2)cc1	OVCAR-8	TRUE
Cn1ccnc1C(=O)/C=C/c1ccc(CC(=O)Nc2ccccc2)cc1	OVCAR-8	FALSE
Cc1ccc(NC(=O)Cc2ccc(/C=C/C(=O)c3ncc[nH]3)cc2)cc1	OVCAR-8	FALSE
O=C(Cc1ccc(/C=C/C(=O)c2ncc[nH]2)cc1)Nc1ccc(C(F)(F)F)cc1	OVCAR-8	FALSE

###

So I've got GI50 readings for RPMI-8226, take a look.

Smiles	GI50 / nM
O=C(Cc1ccc(/C=C/C(=O)c2ncc[nH]2)cc1)Nc1ccc(F)cc1	1270
Cn1ccnc1C(=O)/C=C/c1ccc(CC(=O)Nc2ccc(Cl)cc2)cc1	959
Cn1ccnc1C(=O)/C=C/c1ccc(CC(=O)Nc2ccccc2)cc1	1450
O=C(Cc1ccc(/C=C/C(=O)c2ncc[nH]2)cc1)Nc1ccc(Cl)cc1	857
Cc1ccc(NC(=O)Cc2ccc(/C=C/C(=O)c3ncc[nH]3)cc2)cc1	1790
CCn1ccnc1C(=O)/C=C/c1ccc(CC(=O)Nc2ccc(F)cc2)cc1	2280
Cn1ccnc1C(=O)/C=C/c1ccc(CC(=O)Nc2ccc(F)cc2)cc1	1020
O=C(Cc1ccc(/C=C/C(=O)c2ncc[nH]2)cc1)Nc1ccc(C(F)(F)F)cc1	780

###

Tested on: A549/ATCC
Assay Remarks: NCI 60 screen, A549/ATCC
Format: cell-based
Particulars: Homo sapiens, Non-Small Cell Lung
Description: The compounds synthesized were tested at the National Cancer Institute (NCI) for anti-proliferative activity in the 60 human tumor cell line assay.

Smiles	GI50
CCn1ccnc1C(=O)/C=C/c1ccc(CC(=O)Nc2ccc(F)cc2)cc1	4.16 µM
Cn1ccnc1C(=O)/C=C/c1ccc(CC(=O)Nc2ccc(Cl)cc2)cc1	1.15 µM
O=C(Cc1ccc(/C=C/C(=O)c2ncc[nH]2)cc1)Nc1ccc(Cl)cc1	6.9 µM
Cn1ccnc1C(=O)/C=C/c1ccc(CC(=O)Nc2ccc(F)cc2)cc1	6.43 µM
Cc1ccc(NC(=O)Cc2ccc(/C=C/C(=O)c3ncc[nH]3)cc2)cc1	9.14 µM
Cn1ccnc1C(=O)/C=C/c1ccc(CC(=O)Nc2ccccc2)cc1	6.6 µM

###

System: DU-145
Recorded GI50 for the following compounds
Property Label: GI50 (µM)

Smiles	Experimental Target	Result Units	Quantitative Result
O=C(Cc1ccc(/C=C/C(=O)c2ncc[nH]2)cc1)Nc1ccc(C(F)(F)F)cc1	DU-145	µM	2.13
Cc1ccc(NC(=O)Cc2ccc(/C=C/C(=O)c3ncc[nH]3)cc2)cc1	DU-145	µM	4.56
Cn1ccnc1C(=O)/C=C/c1ccc(CC(=O)Nc2ccc(F)cc2)cc1	DU-145	µM	1.24
Cn1ccnc1C(=O)/C=C/c1ccc(CC(=O)Nc2ccc(Cl)cc2)cc1	DU-145	µM	1.42
CCn1ccnc1C(=O)/C=C/c1ccc(CC(=O)Nc2ccc(F)cc2)cc1	DU-145	µM	4.45
O=C(Cc1ccc(/C=C/C(=O)c2ncc[nH]2)cc1)Nc1ccc(F)cc1	DU-145	µM	1.19
